# Tested on: Candida utilis ATCC 9950
# Format: cell-based
Non-standard residues stand in square brackets, D forms with d. Residues, ends and D or L forms follow the SMILES beside them. dPhe(4-CF3) = N[C@H](Cc1ccc(C(F)(F)F)cc1)C(=O)O
Observable: MIC Candida utilis ATCC 9950 (µg/mL)
Numbers only here, please. The scale is µg/mL.

IN: Give MIC Candida utilis ATCC 9950 (Candida utilis ATCC 9950) of the following molecule: CC(=O)N[C@H](CCCNC(=N)N)C(=O)N[C@H](CCCCN)C(=O)N[C@H](CC(C)C)C(=O)N[C@H](CC(C)C)C(=O)N[C@H](Cc1ccc(C(F)(F)F)cc1)C(=O)N[C@H](CCCCN)C(=O)N[C@H](CC(C)C)C(=O)N[C@H](CCCCN)C(=O)N[C@H](Cc1ccc(C(F)(F)F)cc1)C(=O)N[C@H](CCCCN)C(=O)N[C@H](CCCNC(=N)N)C(N)=O [LV-9] (Ac-[dR][dK][dL][dL][dPhe(4-CF3)][dK][dL][dK][dPhe(4-CF3)][dK][dR]-NH2)
OUT: 16

src = patent US20250304620A1
